We begin with a simple list: items and their reported IC50.
# target.entity: IDH2 R140Q (Homo sapiens, UniProt P48735, R140Q)
# Sequence (P48735 40-452 R140Q): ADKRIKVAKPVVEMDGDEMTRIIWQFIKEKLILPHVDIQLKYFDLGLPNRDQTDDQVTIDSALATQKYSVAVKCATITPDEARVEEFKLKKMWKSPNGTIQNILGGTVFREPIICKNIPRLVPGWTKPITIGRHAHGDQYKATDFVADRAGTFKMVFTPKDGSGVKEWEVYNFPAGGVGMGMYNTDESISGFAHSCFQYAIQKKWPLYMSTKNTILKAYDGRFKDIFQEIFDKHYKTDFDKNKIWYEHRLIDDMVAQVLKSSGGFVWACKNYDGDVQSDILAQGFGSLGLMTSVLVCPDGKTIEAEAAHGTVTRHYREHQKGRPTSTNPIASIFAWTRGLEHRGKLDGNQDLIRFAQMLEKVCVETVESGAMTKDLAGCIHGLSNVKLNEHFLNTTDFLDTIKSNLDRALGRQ
# procedure.details: IDH2 R140Q enzymatic assay (cofactor depletion, similar format)
# Format: biochemical
# condition.details: read-out: Enz R140Q

[[record]]
molecule = "CCNc1cc(Nc2nc(NC(C)C)nc(-c3ccccc3)n2)ccn1"
target_entity = "IDH2 R140Q (Homo sapiens, UniProt P48735, R140Q)"
readout = "IC50"
result = "< 100 nM"

[[record]]
molecule = "CC(C)Nc1nc(Nc2ccccc2)nc(-c2cccc(S(C)(=O)=O)c2)n1"
target_entity = "IDH2 R140Q (Homo sapiens, UniProt P48735, R140Q)"
readout = "IC50"
result = "100 to 1000 nM"

[[record]]
molecule = "CS(=O)(=O)c1cccc(Nc2nc(NC3CCC3)nc(-c3ccccc3F)n2)c1"
target_entity = "IDH2 R140Q (Homo sapiens, UniProt P48735, R140Q)"
readout = "IC50"
result = "< 100 nM"

[[record]]
molecule = "CC(C)(O)CNc1nc(Nc2ccc(F)nc2)nc(-c2ccccc2F)n1"
target_entity = "IDH2 R140Q (Homo sapiens, UniProt P48735, R140Q)"
readout = "IC50"
result = "100 to 1000 nM"

[[record]]
molecule = "FC1(F)CCC(Nc2nc(Nc3ccncc3)nc(-c3ccccc3)n2)CC1"
target_entity = "IDH2 R140Q (Homo sapiens, UniProt P48735, R140Q)"
readout = "IC50"
result = "< 100 nM"


**Query** State its IC50 on IDH2 R140Q (Homo sapiens, UniProt P48735, R140Q): Nc1cccc(-c2nc(NCC(F)(F)F)nc(Nc3cc(F)cc(F)c3)n2)n1
**Result** 100 to 1000 nM

**Query** Would you mind doing CC1(Nc2nc(Nc3cc(F)cc(F)c3)nc(-c3cccc(N)n3)n2)CC1 as well?
**Result** 100 to 1000 nM

**Query** And for COC(=O)c1cc(Nc2nc(NC(C)C)nc(-c3ccccc3)n2)ccn1 [Compound 450] ?
**Result** 100 to 1000 nM

**Query** Same thing, different molecule: CC(C)Nc1nc(Nc2ccnc(C(F)(F)F)c2)nc(-c2cccc(N)n2)n1
**Result** 100 to 1000 nM

**Query** Next up: CC(C)Nc1nc(Nc2cc(F)cc(F)c2)nc(-c2nc(N)ccc2F)n1
**Result** 100 to 1000 nM

---

# target.entity: IDH2 R140Q (Homo sapiens, UniProt P48735, R140Q)
# Sequence (P48735 40-452 R140Q): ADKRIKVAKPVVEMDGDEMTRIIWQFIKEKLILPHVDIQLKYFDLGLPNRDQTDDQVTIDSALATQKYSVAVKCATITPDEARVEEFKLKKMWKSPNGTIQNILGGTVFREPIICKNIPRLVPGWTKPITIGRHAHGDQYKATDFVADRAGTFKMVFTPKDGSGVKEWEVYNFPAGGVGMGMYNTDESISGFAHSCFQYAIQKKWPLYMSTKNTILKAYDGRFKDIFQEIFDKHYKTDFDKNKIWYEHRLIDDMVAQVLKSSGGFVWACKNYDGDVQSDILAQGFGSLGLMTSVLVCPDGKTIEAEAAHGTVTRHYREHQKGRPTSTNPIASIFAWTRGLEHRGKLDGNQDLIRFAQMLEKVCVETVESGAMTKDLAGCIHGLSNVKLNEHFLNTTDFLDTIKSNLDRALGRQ
# procedure.details: IDH2 R140Q enzymatic assay (cofactor depletion, similar format)
# Assay type: biochemical
# condition.details: read-out: Enz R140Q
readout: IC50

// known answers, use as guide
[[record]]
molecule = "CC(C)Nc1nc(Nc2cncc(F)c2)nc(-c2cccc(Cl)n2)n1 [Compound 383]"
readout = "IC50"
result = "0.1 to 1 µM"

[[record]]
molecule = "CC(C)(C)Nc1nc(Nc2cc(F)cc(F)c2)nc(-c2cccc(C(F)(F)F)n2)n1 [Compound 601]"
readout = "IC50"
result = "0.1 to 1 µM"

[[record]]
molecule = "CC(C)Nc1nc(Nc2ccc(OCC3CC3)nc2)nc(-c2ccccc2)n1 [Compound 311]"
readout = "IC50"
result = "0.1 to 1 µM"


**Query** Which value of IC50 has been reported for CNc1cc(Nc2nc(NC(C)C)nc(-c3ccccc3)n2)ccn1 [Compound 302] in the records?
**Result** < 0.1 µM

**Query** # iterate: CC(C)Nc1nc(Nc2ccnc(C#N)c2)nc(-c2ccccc2)n1 [Compound 197]
**Result** < 0.1 µM

**Query** And what about the molecule CC(C)Nc1nc(Nc2ccnc(C(F)(F)F)c2)nc(-c2cccc(=O)[nH]2)n1 [Compound 650] ?
**Result** 0.1 to 1 µM

---

# Tested on: U87MG pLVX-IDH2 R140Q-neo cells
# procedure.details: U87MG pLVX-IDH2 R140Q-neo cell based assay, 2-HG in media by LC-MS at 48 hours
# condition.details: Homo sapiens, U-87 MG
# Protocol: U87MG pLVX-IDH2 R140Q-neo cells are grown in T125 flasks in DMEM containing 10% FBS, 1× penicillin/streptomycin and 500 μg/mL G418. They are harvested by trypsin and seeded into 96 well white bottom plates at a density of 5000 cell/well in 100 μl/well in DMEM with 10% FBS. […] At 48 hours, 100 ul of media is removed from each well and analyzed by LC-MS for 2-HG concentrations. […] The plate is then read for luminescence with an integration time of 500 ms to determine compound effects on growth inhibition.
pIC50: −log10 of the molar value.
readout: pIC50

[[record]]
compound = "CC(C)Nc1nc(Nc2cccc(CO)c2)nc(-c2ccccc2)n1"
target_entity = "U87MG pLVX-IDH2 R140Q-neo cells"
result = "6.00 to 7.00"

[[record]]
compound = "COc1cccc(-c2nc(Nc3cccc(S(C)(=O)=O)c3)nc(NC(C)C)n2)n1"
target_entity = "U87MG pLVX-IDH2 R140Q-neo cells"
result = "6.00 to 7.00"

[[record]]
compound = "CC(C)(C)Nc1nc(Nc2cc(F)cc(S(C)(=O)=O)c2)nc(-c2cccc(C(F)(F)F)n2)n1"
target_entity = "U87MG pLVX-IDH2 R140Q-neo cells"
result = "> 7.00"

[[record]]
compound = "CC(C)Nc1nc(Nc2cncc(F)c2)nc(-c2c(F)cccc2F)n1"
target_entity = "U87MG pLVX-IDH2 R140Q-neo cells"
result = "> 7.00"

[[record]]
compound = "FC(F)(F)c1cccc(-c2nc(Nc3cnoc3)nc(NC3COC3)n2)n1"
target_entity = "U87MG pLVX-IDH2 R140Q-neo cells"
result = "6.00 to 7.00"


**Query** Look up pIC50 for this compound: c1ccc(Nc2nc(NC3CCCOC3)nc(-c3ccccc3)n2)cc1 (stereo not shown)
**Result** 6.00 to 7.00

---

# target.entity: IDH2 R172K (Homo sapiens, UniProt P48735, R172K)
# procedure.details: IDH2 R172K enzymatic assay (NADPH cofactor depletion, diaphorase/resazurin readout)
# condition.details: read-out: Enz R172K
readout: IC50

# count of solved cases: 3
[[record]]
compound = "CC(C)Nc1nc(Nc2cc(F)cc(F)c2)nc(-c2nccc(N)n2)n1"
result = "100 to 1000 nM"

[[record]]
compound = "COCC(C)Nc1nc(Nc2ccnc(C(F)(F)F)c2)nc(-c2cccc(Cl)n2)n1 (stereo not drawn)"
result = "< 100 nM"

[[record]]
compound = "CC(C)Nc1nc(Nc2ccnc(C(F)(F)F)c2)nc(-c2cccc(O)c2F)n1"
result = "< 100 nM"


**Query** # returns recorded IC50 (system: IDH2 R172K (Homo sapiens, UniProt P48735, R172K)) for FC(F)(F)c1cc(Nc2nc(NC3CCOC3)nc(-c3cccc(C(F)(F)F)n3)n2)ccn1 (stereo not drawn)
**Result** < 100 nM

**Query** Next compound up: CC(C)Nc1nc(Nc2cc(F)cc(F)c2)nc(-c2nccc(C(F)(F)F)n2)n1
**Result** < 100 nM

**Query** And the next one, Fc1cc(F)cc(Nc2nc(NCC3CC3)nc(-c3cccc(C(F)(F)F)n3)n2)c1 ?
**Result** < 100 nM
